Provenance of the data: the supplement of paper PMC9170038

- System: MS2 coat protein
- test.name: apparent KD of MS2 coat protein; designed switch direction (-1 OFF switch, 1 ON switch): 1; higher = weaker reporter binding
- measurement.conditions: Eterna round: R95; input ligand: microRNA oligo, concentration not stated

# chain.sequence, unit.name, apparent KD of MS2 coat protein
data = [
    ("GUAUCUACAGGUUGCAAUGCUCGUCGGAUACAUGAGGAUCACCCAUGUUAUAGCCCUGUGCUUGCGCAGGGCUGAUU [Sensor for hsa-mir-208a ( MOD of Tearor )] (puzzle: Sensor for hsa-mir-208a)", "nM", 39.4),
    ("CGCCGACAUGAGGAUCACCCAUGUGAGCGACUCACAGGAUAUACGCGAUAACAAAGUCGCGUAGAAGGGUGCUCCU [Iscezaso] (puzzle: Same State 1)", "nM", 19.2),
    ("UCUUGGUUUUUGCUCGUUUUUUGUGUUGAACAUGAGGAUCACCCAUGUAUUAUACGGUCCGGUUUAGUAGUGGUCCG [JMF 79] (puzzle: Sensor for hsa-mir-208a)", "nM", 16),
    ("CGGCGCUGUUGAGAGGAUAUGCGGUGAUGGACAUGAGGAUCACCCAUGUUAGCGAUAGCAUUACGGUAGAAGGCUCUACAGCUGC [Soteed Omei mod 6] (puzzle: Same State 2)", "nM", 18.9),
    ("GACAGGCAAGCUUUUUUCUCGUAGUGUAGACAUGAGGAUCACCCAUGUGCUCGCCCUGGAUCUUUGGAUCGCAGAAA [Laaxeso] (puzzle: Sensor for hsa-mir-208a)", "nM", 14.4),
    ("GACAAUCUAUCUGAGGAUAUCAUGAAGAAAACAUGAGGAUCACCCAUGUGCAGGAGAACUGCAAAUGAGAAGGCAGAUAGAUUGG [Mat - Same State 2 - Mod - D2] (puzzle: Same State 2)", "nM", 13.1),
    ("UUAAAACAUGAGGAUCACCCAUGUAAUAAUAUGGGAGGAUAUCAGAAUGUAUGUAUGUAAUGAGAAGGCCUAAAUU [Mat - Same State 1 - Mod of Eli - D76] (puzzle: Same State 1)", "nM", 519),
    ("AUAAGUUCGAUGCUCGUCUCUCCGUACAAACAUGAGGAUCACCCAUGUGAUUGGACAAAAGCCCAAUCAGUAUGGCC [Cebeince] (puzzle: Sensor for hsa-mir-208a)", "nM", 21.4),
    ("GGAGGACAUGAGGAUCACCCAUGUGGAUGAUCGCUAGGAUAUGCGUGCAGGAAGAGUGGUGCAGAAGGAGUGGGAU [JR_SS1_Sub048] (puzzle: Same State 1)", "nM", 348),
    ("AACAAUCUAUCUGAGGAUAUCAUGAAAUUAACAUGAGGAUCACCCAUGUGCAGGAAAACUGCAUAUGAGAAGGCAGAUAGAUUGA [salish99_ss2_r3_033] (puzzle: Same State 2)", "nM", 1110),
]

* * *

Reported apparent KD of MS2 coat protein is given for each of the following sequences.
- Test system: MS2 coat protein
- test.name: apparent KD of MS2 coat protein; designed switch direction (-1 OFF switch, 1 ON switch): -1; higher = weaker reporter binding
- measurement.conditions: Eterna round: R95; input ligand: none

# chain.sequence, apparent KD of MS2 coat protein (µM)
data = [
    ("GGUACUAACACGAUAGUGUUAGUACUAUAAGCUUGUGUUACAUGAGGAUCACCCAUGUCCUCAUAAGCUCGUCUUGU [Mat - Sensor v3 - Turn-off var 2 - D89] (puzzle: Sensor v3, turn-off variant 2)", 0.0448),
    ("AGUUGUUGUUUCCGUUCUUACAUGAGGAUCACCCAUGUUUCUUGUCGUGCUCGCGUUGCUCGUCUGGCUGCCUGUUG [salish99_TOv1_r3_069] (puzzle: Sensor v3, turn-off variant 1)", 0.0533),
    ("AAACCUGCCCAUGACCGCAAGCUUUUUGCUUGUCUUACCACAUGAGGAUCACCCAUGUGGCAUGGGCUCCUUAUAAA [Xemave] (puzzle: Sensor v3, turn-off variant 2)", 0.0117),
]
